What IC50 was measured for each of the following?
# MEASURED ON: T1, Rat Y4/PP1 receptor (clone) (rat, UniProt Q63447 1-375)
# T1 construct: also called Rat Y4/PP1 (clone)
# ASSAY REMARKS: competition with rat [125I]PP, rat Y4/PP1 clone
Numbers only, in nM.

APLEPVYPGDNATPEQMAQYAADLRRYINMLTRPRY (ligand, UniProt P01298 30-65, looked up, mature; also called hPP) [human pancreatic polypeptide] | 0.065

Shifting focus to the binder that follows.
Look at this binder and give its reported IC50. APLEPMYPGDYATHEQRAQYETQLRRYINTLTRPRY (ligand, UniProt P06303 30-65, looked up, mature; also called rPP; rat PP) [rat pancreatic polypeptide] 0.071
